tested on: HCT116; details: 72 h; ICRF193 0 nM
Counter-ions that a name gives are not always drawn.
Assay endpoint: IC50 cell viability

Molecule: C[C@]12C=CC(=O)C=C1CC[C@@H]1[C@@H]2[C@@H](O)C[C@@]2(C)[C@H]1CC[C@]2(O)C(=O)COP(=O)(O)O [Prednisolone Phosphate (sodium salt)]
IC50 cell viability: > 45.8 µM
//
Molecule: COC(=O)[C@H]1[C@H]2C[C@@H]3c4[nH]c5cc(OC)ccc5c4CCN3C[C@H]2C[C@@H](OC(=O)c2cc(OC)c(OC)c(OC)c2)[C@@H]1OC
IC50 cell viability: > 45.8 µM

stdin: Which value of IC50 cell viability has been reported for O=C1c2ccccc2C(=O)c2ccccc21 in the records?
stdout: > 45.8 µM

---

system: HCT116; assay: efficacy (maximum % inhibition of viability vs DMSO); higher = more cytotoxic; conditions: 72 h; ICRF193 0 nM
Counter-ions that a name gives are not always drawn.
Entries and their efficacy values follow.
Hi! Could you send only the number? It should be in %, unit omitted.

Molecule: CC[C@]1(O)C[C@H]2CN(CCc3c([nH]c4ccccc34)[C@@](C(=O)OC)(c3cc4c(cc3OC)N(C=O)[C@H]3[C@@](O)(C(=O)OC)[C@H](OC(C)=O)[C@]5(CC)C=CCN6CC[C@]43[C@@H]65)C2)C1
System under test: HCT116
efficacy / %: 70.2
--
Molecule: CC(=O)[C@]1(O)Cc2c(O)c3c(c(O)c2[C@@H](O[C@H]2C[C@H](N)[C@H](O)[C@H](C)O2)C1)C(=O)c1ccccc1C3=O [Idarubicin hydrochloride]
System under test: HCT116
efficacy / %: 80.9
--
Molecule: CSc1ccc2c(c1)N(CCC1CCCCN1C)c1ccccc1S2 (configuration not stated)
System under test: HCT116
efficacy / %: 115
--
Molecule: CO[C@H]1C[C@@H]2CC[C@@H](C)[C@@](O)(O2)C(=O)C(=O)N2CCCC[C@H]2C(=O)O[C@H]([C@H](C)C[C@@H]2CC[C@@H](OC(=O)C(C)(CO)CO)[C@H](OC)C2)CC(=O)[C@H](C)/C=C(\C)[C@@H](O)[C@@H](OC)C(=O)[C@H](C)C[C@H](C)/C=C/C=C/C=C/1C
System under test: HCT116
efficacy / %: 74.5
--
Molecule: C=C(C)[C@H]1Cc2c(ccc3c2O[C@@H]2COc4cc(OC)c(OC)cc4[C@@H]2C3=O)O1
System under test: HCT116
efficacy / %: 69.7

stdin: Recorded efficacy for Oc1ccc(Cl)cc1Cc1cc(Cl)ccc1O , please?
stdout: 106

stdin: Further, for CC(=O)[C@H]1CC[C@H]2[C@@H]3CCC4=CC(=O)CC[C@]4(C)[C@H]3CC[C@]12C ?
stdout: 43.3

stdin: Try this molecule too: C=C(C)[C@@H]1CCC(C)=C[C@H]1c1c(O)cc(CCCCC)cc1O
stdout: 52.9

stdin: Let us now turn to CC/N=C(\NCC)NCCCC[C@H](NC(=O)[C@H](CC(C)C)NC(=O)[C@@H](CCCCN/C(=N/CC)NCC)NC(=O)[C@H](Cc1ccc(O)cc1)NC(=O)[C@H](CO)NC(=O)[C@@H](Cc1cccnc1)NC(=O)[C@@H](Cc1ccc(Cl)cc1)NC(=O)[C@@H](Cc1ccc2ccccc2c1)NC(C)=O)C(=O)N1CCC[C@H]1C(=O)N[C@H](C)C(N)=O
stdout: 80.9

stdin: CCCCCCCCCCCCCC[n+]1ccc(C)cc1 [Miripirium chloride] , same question.
stdout: 104

stdin: Same read-out for COc1cc2c(c(OC)c1OC)-c1ccc(OC)c(=O)cc1[C@@H](NC(C)=O)CC2 ?
stdout: 74

stdin: Now consider Cc1nc(Nc2ncc(C(=O)Nc3c(C)cccc3Cl)s2)cc(N2CCN(CCO)CC2)n1 .
stdout: 74.6
